Recorded values, source ChEMBL document CHEMBL4513139.

Answer each item with its documented Inhibition.
Test system: Cryptococcus neoformans
Details: Concentration 32 ug.mL-1; ASSAY_TEST Inhibition of Fungal Growth; detection method Resazurin; Absorption (OD600-OD570); plate type 384well; NBS; CORNING #3640
Description: Antifungal activity against Cryptococcus neoformans H99 ATCC 208821 (CO-ADD:FG_002); MIC in YNB media using NBS plates, by Resazurin OD(600-570)
Results with a measured potency or affinity are listed apart.
Give the quantity in %, number only.

// query // Inhibition lookup, key: COC(=O)c1ccc(C(=O)Nc2cc(C(=O)Nc3cc(C(=O)NCCN4CCOCC4)n(C)c3)n(C)c2)cc1.O=C(O)C(F)(F)F
// result -98.27

// query // Inhibition lookup, key: COC(=O)CCC(=O)Nc1cc(C(=O)Nc2cc(C(=O)NCCC(=N)N)n(C)c2)n(C)c1.O=C(O)C(F)(F)F
// result -68.45

// query // Inhibition lookup, key: CN(C)CCCNC(=O)c1cc(NC(=O)c2cc(NC(=O)c3cc4ccccc4cn3)cn2C)cn1C.O=C(O)C(F)(F)F
// result -81.77

* * *

System: Candida albicans
Conditions: 32 ug/mL
Description: Antifungal activity against Candida albicans ATCC 90028 (CO-ADD:FG_001); MIC in YNB media using NBS plates, by OD630
Entries with a potency or affinity are not part of this list.
Answer each item with its documented Inhibition.

// query // Inhibition lookup, key: CCOC(=O)c1cc(NC(=O)c2cc(NC(=O)c3nc(N)sc3C(C)C)cn2C)cn1C
// result 4.33%

// query // Inhibition lookup, key: CC(C)c1sc(NC(=O)c2cc(NC(=O)c3cc(NC(=O)c4cnc(Cl)c(Cl)c4)cn3C)cn2C)nc1C(=O)NCCCN(C)C.O=C(O)C(F)(F)F
// result 7.37%

// query // Inhibition lookup, key: Cc1ncc(Cn2cc(CO)nn2)c(N)n1
// result 1.92%

// query // Inhibition lookup, key: CC(C)CCc1sc(NC(=O)c2cc(NC(=O)c3cc(NC(=O)CCC(=O)O)cn3C)cn2C)nc1C(=O)NCCCN(C)C.O=C(O)C(F)(F)F
// result 2.8%

// query // Inhibition lookup, key: Cc1ncc(Cn2cc(CC(N)C(=O)O)nn2)c(N)n1.Cl (configuration not stated)
// result 2.15%

// query // Inhibition lookup, key: CC(C)c1sc(N)nc1C(=O)Nc1cc(C(=O)NCCN2CCOCC2)n(C)c1.O=C(O)C(F)(F)F
// result 3.26%

// query // Inhibition lookup, key: Cn1cc(NC(=O)c2cc(NC(=O)c3cc(NC(=O)c4ccc(Cl)cc4Cl)cn3C)cn2C)cc1C(=O)NCCN1CCOCC1.O=C(O)C(F)(F)F
// result 9.71%

// query // Inhibition lookup, key: Cc1ncc(Cn2cc(CCO)nn2)c(N)n1
// result 0.2%

// query // Inhibition lookup, key: Cc1ncc(CNc2ccc(C(C)(C)C)cc2)c(N)n1
// result -0.83%

// query // Inhibition lookup, key: COC(=O)c1ccc(C(=O)Nc2cc(C(=O)Nc3cc(C(=O)NCCC(=N)N)n(C)c3)n(C)c2)cc1.O=C(O)C(F)(F)F
// result 5.42%

// query // Inhibition lookup, key: CN(C)CCCNC(=O)c1cc(NC(=O)c2cc(NC(=O)c3cc(NC(=N)N)cn3C)cn2C)cn1C.O=C(O)C(F)(F)F.O=C(O)C(F)(F)F
// result 2.03%

// query // Inhibition lookup, key: COc1cccc(C(=N)Nc2cc(C(=O)Nc3cc(C(=O)NCCC(=N)N)n(C)c3)n(C)c2)c1.O=C(O)C(F)(F)F.O=C(O)C(F)(F)F
// result 39.3%

* * *

Test system: Klebsiella pneumoniae
Settings: Concentration 32 ug.mL-1; ASSAY_TEST Inhibition of Bacterial Growth; detection method Absorption (OD600); MEDIA CAMHB; plate type 384well; NBS; CORNING #3640; time 18 hr
Description: Antibacterial activity against Klebsiella pneumoniae MDR ATCC 70063 (CO-ADD:GN_003); MIC in CAMBH media using NBS plates, by OD(600)
Measured potencies and affinities stand elsewhere.
Property: Inhibition (%)
Give the quantity in %, number only.

// query // Inhibition lookup, key: CC(C)CCc1sc(NC(=O)c2cc(NC(=O)c3cc(NC(=O)c4ccc(C(=O)O)cc4)cn3C)cn2C)nc1C(=O)NCCCN(C)C.O=C(O)C(F)(F)F
// result -0.94

// query // Inhibition lookup, key: COc1cccc(C(=O)Nc2cc(C(=O)Nc3cc(C(=O)Nc4cn(CCCN(C)C)cn4)n(C)c3)n(C)c2)c1.O=C(O)C(F)(F)F
// result 3.02

// query // Inhibition lookup, key: COC(=O)CCC(=O)Nc1cc(C(=O)Nc2cc(C(=O)NCCC(=N)N)n(C)c2)n(C)c1.O=C(O)C(F)(F)F
// result 5.44

// query // Inhibition lookup, key: Cc1ncc(CNc2cccc(F)c2)c(N)n1
// result 9.56

// query // Inhibition lookup, key: CN(C)CCCNC(=O)c1cc(NC(=O)c2cc(NC(=O)c3cc4ccccc4cn3)cn2C)cn1C.O=C(O)C(F)(F)F
// result 12.4

// query // Inhibition lookup, key: CCOC(=O)c1cc(NC(=O)c2cc(NC(=O)c3sc(N)nc3C(F)(F)F)cn2C)cn1C
// result 7.86

// query // Inhibition lookup, key: CCOC(=O)CCC(NC(=O)c1ccc(NCc2cn(Cc3cnc(C)nc3N)nn2)cc1)C(=O)OCC (centres undefined)
// result -10.59

// query // Inhibition lookup, key: CN(C)CCCNC(=O)c1cc(NC(=O)c2cc(NC(=O)c3ccc(C(=O)O)cc3)cn2C)cn1C.O=C(O)C(F)(F)F
// result 8.35

// query // Inhibition lookup, key: CC(C)c1sc(NC(=O)c2cc(NC(=O)c3cc(NC(=O)c4cnc(Cl)c(Cl)c4)cn3C)cn2C)nc1C(=O)NCCCN(C)C.O=C(O)C(F)(F)F
// result -2.83

// query // Inhibition lookup, key: COc1cccc(C(=N)Nc2cc(C(=O)Nc3cc(C(=O)Nc4cc(C(=O)NCCCN5CCOCC5)n(C)c4)n(C)c3)n(C)c2)c1.O=C(O)C(F)(F)F.O=C(O)C(F)(F)F
// result 14.25

// query // Inhibition lookup, key: COc1ccc(CC(=O)Nc2cc(C(=O)Nc3cc(C(=O)Nc4cn(CCCN(C)C)cn4)n(C)c3)n(C)c2)cc1.O=C(O)C(F)(F)F
// result 2.03

// query // Inhibition lookup, key: COC(=O)c1ccc(C(=O)Nc2cc(C(=O)Nc3cc(C(=O)NCCN4CCOCC4)n(C)c3)n(C)c2)cc1.O=C(O)C(F)(F)F
// result 8.44

// query // Inhibition lookup, key: COCCOC1CCN(C(=O)c2cc(NC(=O)c3cc(NC(=O)c4ccc(/C=C/c5ccc(OC)cc5)cc4)cn3C)cn2C)CC1.O=S(=O)(O)O
// result 1.91

// query // Inhibition lookup, key: COc1ccc(/C=C(/C(=O)Nc2cc(C(=O)Nc3cc(C(=O)NCCCN(C)C)n(C)c3)n(C)c2)c2ccc(OC)cc2)cc1.O=C(O)C(F)(F)F
// result 4.2

// query // Inhibition lookup, key: Cc1ncc(Cn2cc(CO)nn2)c(N)n1
// result -6.43

// query // Inhibition lookup, key: COc1cccc(C(=N)Nc2cc(C(=O)Nc3cc(C(=O)NCCC(=N)N)n(C)c3)n(C)c2)c1.O=C(O)C(F)(F)F.O=C(O)C(F)(F)F
// result 100.7

// query // Inhibition lookup, key: COC(=O)c1ccc(C(=O)Nc2cc(C(=O)Nc3cc(C(=O)NCCCN(C)C)n(C)c3)n(C)c2)cc1.O=C(O)C(F)(F)F
// result 6.59

// query // Inhibition lookup, key: CC(C)c1sc(N)nc1C(=O)Nc1cc(C(=O)NCCN2CCOCC2)n(C)c1.O=C(O)C(F)(F)F
// result 8.18

// query // Inhibition lookup, key: CC(C)CCc1sc(NC(=O)c2cc(NC(=O)c3ccc(/C=C/c4cc5ccccc5nc4Cl)cc3)cn2C)nc1C(=O)NCCN1CCOCC1.O=C(O)C(F)(F)F
// result -4.36

// query // Inhibition lookup, key: COC(=O)CCC(=O)Nc1cc(C(=O)Nc2cc(C(=O)NCCCN(C)C)n(C)c2)n(C)c1.O=C(O)C(F)(F)F
// result -5.32

// query // Inhibition lookup, key: Cc1ncc(CO)c(N)n1
// result -2.19

// query // Inhibition lookup, key: COCCOC1CCN(C(=O)c2cc(NC(=O)c3cc(NC(=O)c4ccc(/C=C/c5cnc6ccccc6c5)cc4)cn3C)cn2C)CC1
// result 10.84

// query // Inhibition lookup, key: Cc1ccc(S(=O)(=O)NCCc2cn(Cc3cnc(C)nc3N)nn2)cc1
// result 1.07

// query // Inhibition lookup, key: CCOC(=O)c1cc(NC(=O)c2cc(NC(=O)c3nc(N)sc3CCC(C)C)cn2C)cn1C
// result 9.93
